target: Aromatase (Homo sapiens) (UniProt P11511); experiment: qHTS assay to identify aromatase inhibitors (AID 743083); conditions: MCF-7 aro ERE, testosterone-driven ERE luciferase, 24 h; series mostly up to 70.3 µM; further: nearly all actives have a fitted effect of over 55% in size
Sequence (P11511 whole entry, looked up): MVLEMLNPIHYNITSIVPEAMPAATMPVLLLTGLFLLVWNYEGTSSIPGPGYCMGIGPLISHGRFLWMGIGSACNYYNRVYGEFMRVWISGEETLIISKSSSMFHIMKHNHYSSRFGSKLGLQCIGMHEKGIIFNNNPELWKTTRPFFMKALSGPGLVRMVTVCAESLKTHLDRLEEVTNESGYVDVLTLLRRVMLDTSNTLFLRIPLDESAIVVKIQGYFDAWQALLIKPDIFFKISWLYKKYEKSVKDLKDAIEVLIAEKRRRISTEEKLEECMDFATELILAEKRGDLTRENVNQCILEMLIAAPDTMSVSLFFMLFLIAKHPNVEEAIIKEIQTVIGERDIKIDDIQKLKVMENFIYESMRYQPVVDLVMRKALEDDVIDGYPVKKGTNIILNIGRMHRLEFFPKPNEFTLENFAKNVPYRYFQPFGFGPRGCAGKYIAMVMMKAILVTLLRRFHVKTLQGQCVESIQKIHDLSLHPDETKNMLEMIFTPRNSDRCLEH
Results filed as inconclusive are left out. Calls of active or inactive are those of the source. The call rests on the fitted dose curve; in most records, active means well fitted inhibition curve with a large enough effect in the repeat runs; inconclusive means weak or mixed curves; inactive means no such curve, though single readings can be large or run the other way.
Choose the fitting class; nothing outside class 1 (active), class 0 (inactive) is accepted.

Example entries begin here.
>  <compound>
CCOC(=O)C1(c2ccccc2)CCN(CCC(C#N)(c2ccccc2)c2ccccc2)CC1

>  <class_name>
class 0

$$$$
>  <compound>
CC(C)OS(C)(=O)=O

>  <class_name>
class 0

$$$$
>  <compound>
Clc1ccc(-c2ccc(Cl)c(Cl)c2Cl)c(Cl)c1Cl

>  <class_name>
class 0

$$$$
>  <compound>
ClCc1ccc(Cl)cc1Cl

>  <class_name>
class 0

$$$$
>  <compound>
COc1ccc(OC)c(CC(C)N)c1 (configuration not stated)

>  <class_name>
class 0

$$$$

Input line: What was the test verdict on `CC(C)CCCCCOC(=O)c1ccccc1C(=O)OCCCCCC(C)C` ?
Output line: class 0

Input line: Again, but for `CCN`
Output line: class 0

Input line: Again, but for CNC(C)Cc1ccc2c(c1)OCO2 (configuration not stated)
Output line: class 0

Input line: Again, but for CCC(C)c1cc([N+](=O)[O-])cc([N+](=O)[O-])c1OC(=O)C=C(C)C (configuration not stated)
Output line: class 1

Input line: Again, but for `NNC(=O)c1ccccc1`
Output line: class 0

Input line: Again, but for `CN(C)C(=S)[S-].CN(C)C(=S)[S-].[Cu+2]`
Output line: class 1

Input line: Again, but for `C[C@@H]1O[C@@H](O[C@@H]2C=C3CC[C@@H]4[C@H](CC[C@]5(C)[C@@H](c6ccc(=O)oc6)CC[C@]45O)[C@@]3(C)CC2)[C@H](O)[C@H](O)[C@H]1O`
Output line: class 0

Hello, the source for this data is PubChem BioAssay (Tox21), in case you need it.
